target: NADPH oxidase 4 (Homo sapiens) (UniProt Q9NPH5); test: compounds shifting NOX4 Amplex Red fluorescence – cell-based, HEK293-NOX4, tetracycline-induced, NOX inhibitor project, primary screen (AID 1160); conditions: HEK293-NOX4, Amplex Red H2O2 fluorescence, 45 min; higher = more signal, called active from +8 up or from −8 down
Sequence (Q9NPH5 whole entry, looked up): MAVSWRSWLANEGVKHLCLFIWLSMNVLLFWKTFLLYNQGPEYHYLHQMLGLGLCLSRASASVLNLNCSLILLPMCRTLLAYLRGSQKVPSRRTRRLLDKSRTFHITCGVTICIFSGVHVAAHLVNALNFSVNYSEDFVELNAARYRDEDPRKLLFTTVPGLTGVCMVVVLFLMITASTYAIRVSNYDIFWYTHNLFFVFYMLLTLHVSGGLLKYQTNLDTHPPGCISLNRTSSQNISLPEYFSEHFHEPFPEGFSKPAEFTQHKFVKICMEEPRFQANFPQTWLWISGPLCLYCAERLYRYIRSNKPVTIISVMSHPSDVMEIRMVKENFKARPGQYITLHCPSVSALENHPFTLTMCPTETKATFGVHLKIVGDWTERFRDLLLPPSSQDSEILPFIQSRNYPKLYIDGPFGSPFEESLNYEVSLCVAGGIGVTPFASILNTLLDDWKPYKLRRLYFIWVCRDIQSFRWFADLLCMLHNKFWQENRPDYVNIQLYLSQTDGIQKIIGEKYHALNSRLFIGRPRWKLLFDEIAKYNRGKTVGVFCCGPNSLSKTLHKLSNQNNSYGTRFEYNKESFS
quantity name: z-score
Number only, please.

Give reported z-score value for COC(=O)c1c2oc(c1C(=O)OC)C(=O)N[C@@H](C(C)C)Cn1cc(nn1)C1(CCCCC1)NC(=O)N[C@H](CO)CC2 0.758

Give reported z-score value for CC(C)CN1C(=O)[C@@]2(c3ccc([N+](=O)[O-])cc3)CC(=O)N(C3CCCCC3)[C@@H]2c2ccc(CO)cc21 -0.778

Give reported z-score value for COC(=O)[C@@]1(Cc2ccccc2)[C@H]2c3cc(C(=O)N4CCCC4)n(Cc4c(CO)[nH]cc(C)c4=O)c3C[C@H]2CN1C(=O)c1ccccc1 -0.976

Give reported z-score value for C=CCC(OC(C)=O)[C@@H]1[C@@H](N(Cc2cc3ccccc3o2)C(=O)Cc2ccc(OC)cc2)c2cc(OCCCO)ccc2N1C(=O)c1ccc2ccccc2c1 (stereo partly drawn) -1.26

Give reported z-score value for COC(=O)C(CC#Cc1ccc2c(c1)[C@]1(C(=O)N2)[C@H](c2ccc(O)cc2)N2[C@H](c3ccccc3)[C@H](c3ccccc3)OC(=O)[C@H]2[C@@H]1C(=O)N1CCN(c2ncccn2)CC1)C(=O)OC 0.857

Give reported z-score value for CN1C(=O)C2C=CC(C(O)C=Cc3ccc([N+](=O)[O-])cc3)N(Nc3ccccc3)C2C1=O (stereo not drawn) -3.82

Give reported z-score value for COc1ccc([C@H]2C[C@H]3C(I)=C[C@@H]2C(=O)[C@]32CO2)cc1 -0.298

Give reported z-score value for C=C(CCCC)/C(=C/C[C@H](OC(C)=O)c1ccc(OCCO)cc1)c1cnc2ccccc2c1 -0.429
